# TEST PROTOCOL: qHTS of pediatric cancer cell lines to identify multiple opportunities for drug repurposing: Primary screen for Rh18 cells (AID 1347102); note: nearly all actives have a fitted effect of over 65% in size
# STATED CONDITIONS: Rh18 rhabdomyosarcoma viability, CellTiter-Glo luminescence, 48 h; series mostly up to 46 µM
Results filed as inconclusive are left out. Activity calls are given as the source filed them. Calls come from the whole dose curve; as a rule, active = well fitted cell-killing curve with a large enough effect; inconclusive = small, poorly fitted or top-dose-only effect; inactive = flat fitted curve, though single readings scatter.
PROPERTY NAME: outcome

* CCCc1c(OCCCCc2nn[nH]n2)ccc(C(C)=O)c1O | inactive
* COc1ccc(S(=O)(=O)Nc2nnc(CC(C)C)s2)cc1 | inactive
* Nc1ncnc2c1ncn2[C@@H]1O[C@H](CO)[C@@H](O)[C@H]1O | inactive
* O=S(=O)(O)c1cc(I)c(O)c2ncccc12 | inactive
* O=Cc1ccccc1C=O | inactive
* C[C@H](N)[C@H](O)c1cccc(O)c1 | inactive

Prompt: Look at this compound and give its reported outcome. Oc1cn2c(n1)Nc1ccc(Cl)c(Cl)c1C2
Response: inactive

Prompt: Look at this compound and give its reported outcome. C[C@]12CC[C@@H]3c4ccc(O)cc4CC[C@H]3[C@@H]1CCC2=O
Response: inactive

Prompt: Look at this compound and give its reported outcome. Cc1cccc(Nc2cc(Cl)nc(SCC(=O)O)n2)c1C
Response: inactive

Prompt: Look at this compound and give its reported outcome. OC[C@H]1O[C@@H](O[C@@H]2[C@@H](CO)O[C@](O)(CO)[C@H]2O)[C@H](O)[C@@H](O)[C@H]1O
Response: inactive

Prompt: Look at this compound and give its reported outcome. CC(C(O)c1ccc(O)cc1)N1CCC(Cc2ccccc2)CC1 (stereo not drawn)
Response: inactive

Prompt: Look at this compound and give its reported outcome. NC(CSCC(=O)O)C(=O)O (stereo not drawn)
Response: inactive

Prompt: Look at this compound and give its reported outcome. CCCCOc1cc(C(=O)OCCN(CC)CC)ccc1N
Response: inactive
